Quick reference for solubility at 72 h among some compounds
assay: Saturation solubility of active ingredients in 1,3-bis(1-pyrrolidonyl)butane as solvent (Example 5); type: physicochemical; conditions: 22 °C, organic solvent or mixture, thermodynamic from solid, stirred at room temperature for 72 hours, filtrate by UV photometry, read-out: maximum solubility at 22° C.
Unit mg/mL implied. Number only.

Previously resolved entries follow.
{"mol smiles": "Nc1ccc(S(=O)(=O)Nc2nccs2)cc1", "value unit": "mg/mL", "value reported": 200}
{"mol smiles": "CC(=O)Nc1ccc(O)cc1", "value unit": "mg/mL", "value reported": 250}
{"mol smiles": "CCS(=O)(=O)Oc1ccc2c(C)c(C)c(=O)oc2c1", "value unit": "mg/mL", "value reported": 190}
{"mol smiles": "C[C@]12C=CC(=O)C=C1CC[C@@H]1[C@@H]2C(=O)C[C@@]2(C)[C@H]1CC[C@]2(O)C(=O)CO", "value unit": "mg/mL", "value reported": 200}

solubility at 72 h measured on `COc1cc(Cc2cnc(N)nc2N)cc(OC)c1OC` = 150

Each recorded value in this set is attributed to patent US6497886B1.
